test system: HL-1; assay: cardiomyocyte survival under oxidative or metabolic stress – cell-based, panel, H9c2 and HL-1, H2O2, 2-deoxyglucose, ATP luminescence, SAR follow-up (AID 651642); details: H9c2/HL-1 cardiomyocyte 2-deoxyglucose damage, run 3, with 2-deoxyglucose
Measured IC50, listed per entry.
Give a bare numeral; the unit µM is implied.

Known results for molecules:
{"columns": ["molecule", "IC50, µM"],
 "data": [
  ["COc1ccc2c(c1OC)C(=O)N1c3ccccc3C(=O)N(Cc3ccc(F)cc3)C21 (stereo not drawn)", 17.7],
  ["COc1ccc2c(c1OC)C(=O)N1c3ccccc3C(=O)N(Cc3cccc(C)c3)C21 (stereo not drawn)", 12],
  ["COc1cc(-c2cc(C(=O)Nc3cccc(C(=O)N4CCOCC4)c3)c3ccccc3n2)cc(OC)c1OC", 27.8]
]}

For `COc1cc(-c2cc(C(=O)Nc3cccc(C(=O)Nc4ccccc4)c3)c3ccccc3n2)cc(OC)c1OC` the molecule record lists IC50 as 1.43

For `COC(=O)CNC(=O)c1cccc(NC(=O)c2cc(-c3cc(OC)c(OC)c(OC)c3)nc3ccccc23)c1` the molecule record lists IC50 as 2.32

For `COc1cc(-c2cc(C(=O)NCC(=O)Nc3cccc(C(C)=O)c3)c3cc(Br)ccc3n2)cc(OC)c1OC` the molecule record lists IC50 as 3.4

For `COc1cc(-c2cc(C(=O)NCC(=O)Nc3cccc(C(C)=O)c3)c3cccc(Cl)c3n2)cc(OC)c1OC` the molecule record lists IC50 as 5.38

For COc1ccc2c(c1OC)C(=O)N1c3ccccc3C(=O)N(Cc3cccc(Br)c3)C21 (stereo not drawn) the molecule record lists IC50 as 7.9

For COc1ccc2c(c1OC)C(=O)N1c3ccccc3C(=O)N(Cc3ccccc3)C21 (stereo not drawn) the molecule record lists IC50 as 13.8

Hello, the source for this data is PubChem BioAssay AID651642, in case you need it.
